A collection of molecules and their measured CC50
# System: SW620
# ASSAY_NAME: cells
# Format: cell-based
# TEST_SETTINGS: Homo sapiens, SW-620, 72 h, read-out: LC50
Provide only the numeric value, understood in µM.

// solved cases for CC50 follow
| MOLECULE | CC50 [µM] |
| --- | --- |
| C[C@H](N[P@](=O)(OC[C@@H]1C[C@@H](O)[C@H](n2cnc3c(N)ncnc32)O1)Oc1ccccc1)C(=O)OCc1ccccc1 | 35 |
| CCOC(=O)CCc1ccccc1OP(=O)(N[C@@H](C)C(=O)OCc1ccccc1)OC[C@@H]1C[C@@H](O)[C@H](n2cnc3c(N)ncnc32)O1 (stereo partly drawn) | 43.4 |

*Q* Please look up its CC50: CC(=O)O[C@H]1C(=O)[C@@]2(C)[C@H]([C@H](OC(=O)c3ccccc3)[C@]3(O)C[C@H](OC(=O)[C@H](O)[C@@H](NC(=O)c4ccccc4)c4ccccc4)C(C)=C1C3(C)C)[C@]1(OC(C)=O)CO[C@@H]1C[C@@H]2O [PTX, paclitaxel, reference compound]
*A* 0.02

---

A collection of compounds and their measured MI%
# Tested on: NCI-H929
# ASSAY_NAME: cells
# Type: cell-based
# TEST_SETTINGS: NCI-H929, maximum inhibitory effect over concentration range
Provide only the numeric value, understood in %.

// solved cases for MI% follow
| COMPOUND | STUDY_SYSTEM | MI% (%) |
| --- | --- | --- |
| CCOC(=O)CCc1ccccc1OP(=O)(N[C@@H](C)C(=O)OCc1ccccc1)OC[C@@H]1C[C@@H](O)[C@H](n2cnc3c(N)ncnc32)O1 (stereo partly drawn) | NCI-H929 | 100 |
| CC(=O)O[C@H]1C(=O)[C@@]2(C)[C@H]([C@H](OC(=O)c3ccccc3)[C@]3(O)C[C@H](OC(=O)[C@H](O)[C@@H](NC(=O)c4ccccc4)c4ccccc4)C(C)=C1C3(C)C)[C@]1(OC(C)=O)CO[C@@H]1C[C@@H]2O [PTX, paclitaxel, reference compound] | NCI-H929 | 82 |
| C[C@H](N[P@](=O)(OC[C@@H]1C[C@@H](O)[C@H](n2cnc3c(N)ncnc32)O1)Oc1ccccc1)C(=O)OCc1ccccc1 | NCI-H929 | 94 |
| C[C@H](NP(=O)(OC[C@@H]1C[C@@H](O)[C@H](n2cnc3c(N)ncnc32)O1)Oc1ccccc1)C(=O)OCc1ccccc1 (stereo partly drawn) | NCI-H929 | 100 |
| C[C@H](N[P@@](=O)(OC[C@@H]1C[C@@H](O)[C@H](n2cnc3c(N)ncnc32)O1)Oc1ccccc1)C(=O)OCc1ccccc1 | NCI-H929 | 97 |

Below: the item to evaluate.
*Q* API: value(readout=MI%, system=NCI-H929) for record Nc1ncnc2c1ncn2[C@@H]1O[C@H](CO)C[C@H]1O [3′-dA, 3′-Deoxyadenosine, reference compound]
*A* 24

---

# ASSAY_NAME: Plasma stability
# Type: in vitro ADME
# TEST_SETTINGS: human, plasma, without EHNA
ASSAY_ENDPOINT: half-life at 24 h, 20 µM
The answer should read as a number with its unit following.

*Q* Please look up its half-life at 24 h, 20 µM: Nc1ncnc2c1ncn2[C@@H]1O[C@H](CO)C[C@H]1O [3′-dA, 3′-Deoxyadenosine, reference compound]
*A* 1.03 h

---

# System: MOLT-4
# ASSAY_NAME: cells
# Format: cell-based
# TEST_SETTINGS: Homo sapiens, MOLT-4, 72 h, read-out: MI%
A collection of compounds and their measured Emax
Provide only the numeric value, understood in %.

// solved cases for Emax follow
| COMPOUND | STUDY_SYSTEM | Emax, % |
| --- | --- | --- |
| C[C@H](N[P@](=O)(OC[C@@H]1C[C@@H](O)[C@H](n2cnc3c(N)ncnc32)O1)Oc1ccccc1)C(=O)OCc1ccccc1 [Sp-7a] | MOLT-4 | 98 |
| C[C@H](N[P@@](=O)(OC[C@@H]1C[C@@H](O)[C@H](n2cnc3c(N)ncnc32)O1)Oc1ccccc1)C(=O)OCc1ccccc1 [Rp-7a] | MOLT-4 | 98 |

*Q* Please look up its Emax: C[C@H](NP(=O)(OC[C@@H]1C[C@@H](O)[C@H](n2cnc3c(N)ncnc32)O1)Oc1ccccc1)C(=O)OCc1ccccc1 (stereo partly drawn) [Compound 7a]
*A* 98

---

# ASSAY_NAME: Metabolic stability in cryopreserved human hepatocytes
# Format: in vitro ADME
# TEST_SETTINGS: pH 7.3, read-out: t1/2 (half-life)
ASSAY_ENDPOINT: half-life at 1 μM (min)
Provide only the numeric value, understood in min.

*Q* Please look up its half-life at 1 μM: CCOC(=O)CCc1ccccc1OP(=O)(N[C@@H](C)C(=O)OCc1ccccc1)OC[C@@H]1C[C@@H](O)[C@H](n2cnc3c(N)ncnc32)O1 (stereo partly shown) [Compound 7e]
*A* 26

---

# Test system: Jurkat
# ASSAY_NAME: cells
# Type: cell-based
# TEST_SETTINGS: Homo sapiens, Jurkat, 72 h, read-out: LC50
A collection of compounds and their measured log10 of CC50
Short version: log10 scale, CC50, µM.

| COMPOUND | log10 of CC50 |
| --- | --- |
| CCOC(=O)CCc1ccccc1OP(=O)(N[C@@H](C)C(=O)OCc1ccccc1)OC[C@@H]1C[C@@H](O)[C@H](n2cnc3c(N)ncnc32)O1 (stereo partly drawn) | 0.68 |
| C[C@H](NP(=O)(OC[C@@H]1C[C@@H](O)[C@H](n2cnc3c(N)ncnc32)O1)Oc1ccccc1)C(=O)OCc1ccccc1 (stereo partly drawn) | 0.16 |
| C[C@H](N[P@@](=O)(OC[C@@H]1C[C@@H](O)[C@H](n2cnc3c(N)ncnc32)O1)Oc1ccccc1)C(=O)OCc1ccccc1 | 0.45 |
| C[C@H](N[P@](=O)(OC[C@@H]1C[C@@H](O)[C@H](n2cnc3c(N)ncnc32)O1)Oc1ccccc1)C(=O)OCc1ccccc1 | 0.36 |

Below: the item to evaluate.
*Q* Please look up its log10 of CC50: CC(=O)O[C@H]1C(=O)[C@@]2(C)[C@H]([C@H](OC(=O)c3ccccc3)[C@]3(O)C[C@H](OC(=O)[C@H](O)[C@@H](NC(=O)c4ccccc4)c4ccccc4)C(C)=C1C3(C)C)[C@]1(OC(C)=O)CO[C@@H]1C[C@@H]2O [PTX, paclitaxel, reference compound]
*A* -2.30

---

A collection of compounds and their measured CC50
# System: HEL92.1.7
# ASSAY_NAME: cells
# Type: cell-based
# TEST_SETTINGS: Homo sapiens, HEL 92.1.7, 72 h, read-out: LC50
Provide only the numeric value, understood in µM.

// solved cases for CC50 follow
| COMPOUND | UNIT_SYMBOL | RECORDED_NUMBER |
| --- | --- | --- |
| CC(=O)O[C@H]1C(=O)[C@@]2(C)[C@H]([C@H](OC(=O)c3ccccc3)[C@]3(O)C[C@H](OC(=O)[C@H](O)[C@@H](NC(=O)c4ccccc4)c4ccccc4)C(C)=C1C3(C)C)[C@]1(OC(C)=O)CO[C@@H]1C[C@@H]2O [PTX, paclitaxel, reference compound] | µM | 0.02 |
| CCOC(=O)CCc1ccccc1OP(=O)(N[C@@H](C)C(=O)OCc1ccccc1)OC[C@@H]1C[C@@H](O)[C@H](n2cnc3c(N)ncnc32)O1 (stereo partly drawn) | µM | 14.5 |
| C[C@H](NP(=O)(OC[C@@H]1C[C@@H](O)[C@H](n2cnc3c(N)ncnc32)O1)Oc1ccccc1)C(=O)OCc1ccccc1 (stereo partly drawn) | µM | 8.07 |
| Nc1ncnc2c1ncn2[C@@H]1O[C@H](CO)C[C@H]1O [3′-dA, 3′-Deoxyadenosine, reference compound] | µM | 68.9 |
| C[C@H](N[P@@](=O)(OC[C@@H]1C[C@@H](O)[C@H](n2cnc3c(N)ncnc32)O1)Oc1ccccc1)C(=O)OCc1ccccc1 | µM | 11 |

Below: the item to evaluate.
*Q* Please look up its CC50: C[C@H](N[P@](=O)(OC[C@@H]1C[C@@H](O)[C@H](n2cnc3c(N)ncnc32)O1)Oc1ccccc1)C(=O)OCc1ccccc1
*A* 11

---

# Tested on: HT29
# ASSAY_NAME: cells
# Assay type: cell-based
# TEST_SETTINGS: HT29, maximum inhibitory effect over concentration range
ASSAY_ENDPOINT: MI% (%)
Provide only the numeric value, understood in %.

// solved cases for MI% follow
| MOLECULE | MI%, % |
| --- | --- |
| CC(=O)O[C@H]1C(=O)[C@@]2(C)[C@H]([C@H](OC(=O)c3ccccc3)[C@]3(O)C[C@H](OC(=O)[C@H](O)[C@@H](NC(=O)c4ccccc4)c4ccccc4)C(C)=C1C3(C)C)[C@]1(OC(C)=O)CO[C@@H]1C[C@@H]2O [PTX, paclitaxel, reference compound] | 75 |
| C[C@H](N[P@@](=O)(OC[C@@H]1C[C@@H](O)[C@H](n2cnc3c(N)ncnc32)O1)Oc1ccccc1)C(=O)OCc1ccccc1 | 97 |
| C[C@H](NP(=O)(OC[C@@H]1C[C@@H](O)[C@H](n2cnc3c(N)ncnc32)O1)Oc1ccccc1)C(=O)OCc1ccccc1 (stereo partly drawn) | 93 |

*Q* API: value(readout=MI%, system=HT29) for record Nc1ncnc2c1ncn2[C@@H]1O[C@H](CO)C[C@H]1O [3′-dA, 3′-Deoxyadenosine, reference compound]
*A* 44

*Q* API: value(readout=MI%, system=HT29) for record C[C@H](N[P@](=O)(OC[C@@H]1C[C@@H](O)[C@H](n2cnc3c(N)ncnc32)O1)Oc1ccccc1)C(=O)OCc1ccccc1
*A* 95

*Q* API: value(readout=MI%, system=HT29) for record CCOC(=O)CCc1ccccc1OP(=O)(N[C@@H](C)C(=O)OCc1ccccc1)OC[C@@H]1C[C@@H](O)[C@H](n2cnc3c(N)ncnc32)O1 (stereo partly drawn)
*A* 89
